Source: ChEMBL document CHEMBL5344482

# Measured target: UniProtKB P0DTD1
# maps each entry to its IC50
Dear colleague, please return just the value in nM, with no unit written.

Smiles repr: NCCc1cccc(Cl)c1
Units of measure: nM
IC50: 52

Let us examine a further case.
IC50 of NCCc1ccc(C(F)F)cc1 on UniProtKB P0DTD1?
50
